The measured values listed here are drawn from patent US7550469B2.

molecular target: cloned human dopamine D3 receptors (Homo sapiens, UniProt P35462); construct: expressed in transfected cells; membrane homogenate; assay: [N-Methyl-3H]Spiroperidol binding to cloned human dopamine D3 receptors (Protocol 1); conditions: Table 2; read-out: D3K1
Sequence (P35462 whole entry): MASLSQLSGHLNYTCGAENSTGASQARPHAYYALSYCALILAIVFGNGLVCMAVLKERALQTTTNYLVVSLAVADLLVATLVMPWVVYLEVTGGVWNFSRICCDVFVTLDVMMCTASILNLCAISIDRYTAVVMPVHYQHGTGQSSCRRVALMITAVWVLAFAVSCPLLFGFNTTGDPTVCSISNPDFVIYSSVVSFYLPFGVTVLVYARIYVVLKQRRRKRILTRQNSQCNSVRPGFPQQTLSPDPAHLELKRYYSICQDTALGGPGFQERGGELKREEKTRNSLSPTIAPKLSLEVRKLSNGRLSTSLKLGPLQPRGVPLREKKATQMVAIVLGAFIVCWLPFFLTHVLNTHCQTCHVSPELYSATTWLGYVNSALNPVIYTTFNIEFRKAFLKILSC
assay-metric: Ki (µM)

Below: 3 molecules and their reported Ki.
{"molecule": "O=C(NC(CO)CCCN1CCN(c2csc3cc(C(F)(F)F)ccc23)CC1)c1ccc(Cl)cc1 (stereo not shown)", "Ki (µM)": 0.245}
{"molecule": "COc1ccc(C(=O)N[C@H](CO)CCCN2CCN(c3csc4cc(C(F)(F)F)ccc34)CC2)cc1", "Ki (µM)": 0.191}
{"molecule": "O=C(NCCCCN1CCCN(c2csc3cc(F)ccc23)CC1)c1ccc2ncccc2c1", "Ki (µM)": 0.00189}

A. CCn1cc(C(=O)NC(CO)CCCN2CCN(c3csc4cc(C(F)(F)F)ccc34)CC2)c(=O)c2ccc(C)nc21 (stereo not shown)
B. NS(=O)(=O)c1ccc(C(=O)NCCCCN2CCCN(c3csc4cc(F)ccc34)CC2)cc1
C. O=C(NCC(CO)CCN1CCN(c2csc3cc(C(F)(F)F)ccc23)CC1)c1cc2ccccc2o1 (stereo not shown) [818932ES]
D. COc1ccc2cc(C(=O)NCCCCN3CCCN(c4csc5cc(F)ccc45)CC3)oc2c1
Give the ascending ranking of the items by reported Ki. Rank them, then answer with their labels in that order.
B, D, A, C
